# ASSAY DETAILS: Half-life in Beagle dog at 10 mg/kg, po measured upto 48 hrs by LC-MS/MS analysis
# Assay type: ADME, organism-based, Canis lupus familiaris
# MEASUREMENT CONTEXT: in vivo
RECORDED METRIC: half-life

# SUBSTANCE SMILES, RECORDED METRIC, RESULT
records = [
    ("CCc1cnc(N2CCC(COc3ccc(C4=CC[C@H](C(=O)N5CCC[C@@H]5CO)CC4)cc3)CC2)nc1", "half-life", "17.2 h"),
]

###

# ASSAY DETAILS: Lipophilicity, logP of compound
# Assay type: physicochemical
# MEASUREMENT CONTEXT: octanol/water

# SUBSTANCE SMILES, logP
data = [
    ("CCc1cnc(N2CCC(COc3ccc(C4=CC[C@H](C(=O)N5CCC[C@@H]5CO)CC4)cc3)CC2)nc1", 3.45),
]
